- System: Clostridium citroniae
- ASSAY_OVERVIEW: Antimicrobial activity against Clostridium citroniae under anaerobic conditions after 44 hrs by CLSI-M11-47 protocol based agar dilution method
- Type: functional
- EXPERIMENTAL_CONTEXT: Enterocloster citroniae
Collected MIC50 values appear next to each entry.
Number in µg/mL, nothing else.

Guide cases for MIC50, answers given:
SMILES_NOTATION: Cc1ncc([N+](=O)[O-])n1CCO
PROPERTY_LABEL: MIC50
QUANTITATIVE_RESULT: 0.06

SMILES_NOTATION: CO/N=C(\C(=O)N[C@@H]1C(=O)N2C(C(=O)O)=C(CSc3nc(=O)c(O)nn3C)CS[C@H]12)c1csc(N)n1
PROPERTY_LABEL: MIC50
QUANTITATIVE_RESULT: 4

SMILES_NOTATION: CCO/N=C(\C(=O)N[C@@H]1C(=O)N2C(C(=O)[O-])=C(Sc3nc(-c4cc[n+](C)cc4)cs3)CS[C@H]12)c1nsc(NP(=O)(O)O)n1
PROPERTY_LABEL: MIC50
QUANTITATIVE_RESULT: 1

Challenge: Bench note: what MIC50 did `CCC[C@@H]1C[C@@H](C(=O)N[C@@H]([C@H]2O[C@H](SC)[C@H](O)[C@@H](O)[C@H]2O)[C@H](C)Cl)N(C)C1` show?
Response given: 0.5
